- System: tetA promoter (PtetA)-lacZ reporter in E. coli KM3
- Format: cell-based
- experimentalContext: Table 6, reverse repressor hits; tribenuron, same plate assay format as Table 4
assayMetric: relative β-galactosidase activity, inducer Tb
Provide a numeric answer; units are not to be included.

Some solved entries appear below for comparison.
L1-21: library L1 reverse repressor hit (SEQ ID NO: 1206-1213) (protein, rSuR L1-21) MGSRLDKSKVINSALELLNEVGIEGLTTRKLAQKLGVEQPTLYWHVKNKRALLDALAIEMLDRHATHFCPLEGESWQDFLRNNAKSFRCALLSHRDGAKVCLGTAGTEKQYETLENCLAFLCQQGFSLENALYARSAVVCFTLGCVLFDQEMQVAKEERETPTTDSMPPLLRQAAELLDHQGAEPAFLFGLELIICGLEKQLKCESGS; 2.13
L1-33: library L1 reverse repressor hit (SEQ ID NO: 1206-1213) (protein, rSuR L1-33) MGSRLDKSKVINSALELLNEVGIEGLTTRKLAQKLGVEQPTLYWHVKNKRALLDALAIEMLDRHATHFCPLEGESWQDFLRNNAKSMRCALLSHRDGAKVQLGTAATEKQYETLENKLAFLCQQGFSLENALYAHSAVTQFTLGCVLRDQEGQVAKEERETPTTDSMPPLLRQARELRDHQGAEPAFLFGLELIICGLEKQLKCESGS; 4.71
L1-34: library L1 reverse repressor hit (SEQ ID NO: 1206-1213) (protein, rSuR L1-34) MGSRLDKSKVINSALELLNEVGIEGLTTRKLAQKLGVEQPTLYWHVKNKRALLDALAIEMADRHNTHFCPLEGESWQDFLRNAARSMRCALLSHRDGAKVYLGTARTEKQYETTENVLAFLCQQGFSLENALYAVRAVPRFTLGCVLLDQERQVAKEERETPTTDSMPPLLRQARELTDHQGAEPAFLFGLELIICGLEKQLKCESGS; 2.26

Return the recorded relative β-galactosidase activity, inducer Tb value; entry: L1-18: library L1 reverse repressor hit (SEQ ID NO: 1206-1213) (protein, rSuR L1-18) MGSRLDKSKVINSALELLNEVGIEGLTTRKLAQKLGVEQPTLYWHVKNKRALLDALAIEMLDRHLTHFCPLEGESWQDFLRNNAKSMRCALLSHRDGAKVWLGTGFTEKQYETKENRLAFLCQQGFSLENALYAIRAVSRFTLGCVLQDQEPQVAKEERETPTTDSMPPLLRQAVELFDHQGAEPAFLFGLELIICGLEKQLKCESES
1.65

Return the recorded relative β-galactosidase activity, inducer Tb value; entry: L1-25: library L1 reverse repressor hit (SEQ ID NO: 1206-1213) (protein, rSuR L1-25) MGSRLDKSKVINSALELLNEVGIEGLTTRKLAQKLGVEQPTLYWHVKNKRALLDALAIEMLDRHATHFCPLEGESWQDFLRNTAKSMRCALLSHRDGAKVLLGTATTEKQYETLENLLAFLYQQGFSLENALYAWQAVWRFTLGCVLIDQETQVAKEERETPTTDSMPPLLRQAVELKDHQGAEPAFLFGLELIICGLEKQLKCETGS
1.72

Return the recorded relative β-galactosidase activity, inducer Tb value; entry: L1-41: library L1 reverse repressor hit (SEQ ID NO: 1206-1213) (protein, rSuR L1-41) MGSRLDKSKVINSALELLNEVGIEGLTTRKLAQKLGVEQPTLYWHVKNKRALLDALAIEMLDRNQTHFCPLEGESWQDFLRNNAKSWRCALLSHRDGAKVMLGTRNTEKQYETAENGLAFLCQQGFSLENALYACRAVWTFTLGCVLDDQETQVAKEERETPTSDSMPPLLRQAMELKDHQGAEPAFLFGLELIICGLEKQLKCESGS
1.41

Values from patent US8580556B2
